I'd appreciate it if you could supply logD values for the items below.
# Assay method text: Lipophilicity, log D of the compound at pH 7.4 by shake-flask method
# Type: physicochemical
# Assay setup: buffer
Give bare numbers.

Example entries and their recorded answers appear below.
CC(Nc1ccc(F)cc1)c1cc(C(=O)N(C)C)cc2c(=O)cc(N3CCOCC3)oc12 (racemic)
1.5
Cc1cc(F)cc(NC(C)c2cc(C(=O)N(C)C)cc3c(=O)cc(N4CCOCC4)oc23)c1 (racemic)
2.2
CN(C)C(=O)c1cc(CNc2cc(F)cc(F)c2)c2oc(N3CCOCC3)cc(=O)c2c1
2.2

// next item, logD requested
Give reported logD value for CC(Nc1cc(F)cc(F)c1)c1cc(C(=O)N(C)CCO)cc2c(=O)cc(N3CCOCC3)oc12 (racemic)
1.5

----------
# Assay method text: Intrinsic clearance in cryopreserved human hepatocytes measured per 10^6 cells
# Assay type: ADME, cell-based, Hepatocyte
# Assay setup: read-out: CLH
Value type: hepatocyte CLint

Example entries and their recorded answers appear below.
C[C@H](Nc1cc(F)cc(F)c1)c1cc(C(=O)N(C)C)cc2c(=O)cc(N3CCO[C@@H](C)C3)oc12
< 3 µL/min/1e6 cells
CC(Nc1cc(F)cc(F)c1)c1cc(C(=O)N2CCCCC2)cc2c(=O)cc(N3CCOCC3)oc12 (racemic)
21 µL/min/1e6 cells
C[C@@H](Nc1cccc(Cl)c1F)c1cc(C(=O)N(C)C)cc2c(=O)cc(N3CCOCC3)oc12
< 3 µL/min/1e6 cells
CCNC(=O)c1cc(C(C)Nc2cc(F)cc(F)c2)c2oc(N3CCOCC3)cc(=O)c2c1 (racemic)
< 4 µL/min/1e6 cells
CC(Nc1cc(F)cc(F)c1)c1cc(C(=O)N2CCC(O)CC2)cc2c(=O)cc(N3CCOCC3)oc12 (racemic)
< 3 µL/min/1e6 cells
C[C@@H](Nc1cc(F)c(F)c(F)c1)c1cc(C(=O)N(C)C)cc2c(=O)cc(N3CCOCC3)oc12
< 4 µL/min/1e6 cells
C[C@H]1CN(c2cc(=O)c3cc(C(=O)N(C)C)cc([C@@H](C)Nc4cc(F)cc(F)c4)c3o2)CCO1
< 3 µL/min/1e6 cells

// next item, hepatocyte CLint requested
Give reported hepatocyte CLint value for CC(Nc1cc(F)cc(F)c1)c1cc(C(=O)N2CCOCC2)cc2c(=O)cc(N3CCOCC3)oc12 (racemic)
< 3 µL/min/1e6 cells

----------
# System under test: Phosphatidylinositol 4,5-bisphosphate 3-kinase catalytic subunit gamma isoform (Homo sapiens, UniProt P48736)
# Sequence (P48736 whole entry, canonical isoform): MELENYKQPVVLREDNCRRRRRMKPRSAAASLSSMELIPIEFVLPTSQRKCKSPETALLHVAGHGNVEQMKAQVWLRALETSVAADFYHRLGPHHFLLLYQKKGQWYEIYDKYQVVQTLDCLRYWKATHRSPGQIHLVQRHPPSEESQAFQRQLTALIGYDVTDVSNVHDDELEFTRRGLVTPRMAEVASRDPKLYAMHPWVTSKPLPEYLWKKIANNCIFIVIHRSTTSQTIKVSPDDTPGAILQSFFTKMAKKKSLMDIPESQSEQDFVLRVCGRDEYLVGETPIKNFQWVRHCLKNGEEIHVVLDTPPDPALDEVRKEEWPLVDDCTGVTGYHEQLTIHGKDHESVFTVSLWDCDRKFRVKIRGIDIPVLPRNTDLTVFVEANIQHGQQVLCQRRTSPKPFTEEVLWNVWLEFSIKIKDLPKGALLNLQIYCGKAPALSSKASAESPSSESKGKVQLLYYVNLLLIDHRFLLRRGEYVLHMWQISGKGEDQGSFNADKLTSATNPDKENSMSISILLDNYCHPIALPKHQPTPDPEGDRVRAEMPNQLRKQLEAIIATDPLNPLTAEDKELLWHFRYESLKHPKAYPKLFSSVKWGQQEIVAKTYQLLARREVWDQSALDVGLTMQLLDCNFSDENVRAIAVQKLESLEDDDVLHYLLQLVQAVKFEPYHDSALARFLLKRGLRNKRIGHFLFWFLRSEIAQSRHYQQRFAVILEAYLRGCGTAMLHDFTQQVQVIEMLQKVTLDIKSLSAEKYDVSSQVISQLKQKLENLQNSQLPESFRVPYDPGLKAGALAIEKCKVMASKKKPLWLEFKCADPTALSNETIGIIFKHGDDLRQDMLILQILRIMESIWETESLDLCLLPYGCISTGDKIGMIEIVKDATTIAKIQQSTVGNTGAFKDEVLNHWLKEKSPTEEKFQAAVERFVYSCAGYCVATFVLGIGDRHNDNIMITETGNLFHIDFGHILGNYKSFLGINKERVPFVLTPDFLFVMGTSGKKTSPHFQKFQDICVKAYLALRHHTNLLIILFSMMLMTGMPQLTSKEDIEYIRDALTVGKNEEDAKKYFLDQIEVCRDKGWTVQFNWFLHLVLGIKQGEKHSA
# Assay method text: Inhibition of human recombinant PI3Kgamma using PIP2 by Kinase-Glo Plus assay
pIC50: −log10 of the molar value.
Decide by pIC50: equal to or exceeding 6 means MET, less means NOT MET.

Does the reported pIC50 for C[C@@H](Nc1cc(F)cc(F)c1)c1cc(C(=O)N2CCC2)cc2c(=O)cc(N3CCOCC3)oc12 fall at or above the 6 mark?
MET

Does the reported pIC50 for CNC(=O)c1cc([C@@H](C)Nc2cc(F)cc(F)c2)c2oc(N3CCOCC3)cc(=O)c2c1 fall at or above the 6 mark?
MET

Does the reported pIC50 for C[C@H]1CN(c2cc(=O)c3cc(C(=O)N(C)C)cc([C@@H](C)Nc4cc(F)cc(F)c4)c3o2)CCO1 fall at or above the 6 mark?
MET

Does the reported pIC50 for C[C@@H](Nc1cc(F)cc(Cl)c1)c1cc(C(=O)N(C)C)cc2c(=O)cc(N3CCOCC3)oc12 fall at or above the 6 mark?
MET

Does the reported pIC50 for C[C@H](c1cc(C(=O)N2CCC(O)CC2)cc2c(=O)cc(N3CCOCC3)oc12)N(C)c1cc(F)cc(F)c1 fall at or above the 6 mark?
NOT MET

Does the reported pIC50 for C[C@@H](Nc1ccc(F)c(F)c1)c1cc(C(=O)N(C)C)cc2c(=O)cc(N3CCOCC3)oc12 fall at or above the 6 mark?
NOT MET

Does the reported pIC50 for CC(c1cc(C(=O)N2CCCC2)cc2c(=O)cc(N3CCOCC3)oc12)N(C)c1cc(F)cc(F)c1 (racemic) fall at or above the 6 mark?
NOT MET

Does the reported pIC50 for CC(Nc1cc(F)ccc1F)c1cc(C(=O)N(C)C)cc2c(=O)cc(N3CCOCC3)oc12 (racemic) fall at or above the 6 mark?
NOT MET

----------
# Assay method text: Fraction unbound in dog plasma
# Format: ADME, cell-free, Canis lupus familiaris
Value type: fraction unbound
Give bare numbers.

Example entries and their recorded answers appear below.
C[C@@H](Nc1ccc(F)c(F)c1)c1cc(C(=O)N(C)C)cc2c(=O)cc(N3CCOCC3)oc12
0.34
C[C@@H](Nc1cc(F)cc(Cl)c1)c1cc(C(=O)N(C)C)cc2c(=O)cc(N3CCOCC3)oc12
0.14
C[C@H](c1cc(C(=O)N(C)CCO)cc2c(=O)cc(N3CCOCC3)oc12)N(C)c1cc(F)cc(F)c1
0.23
C[C@H](c1cc(C(=O)N(C)C)cc2c(=O)cc(N3CCOCC3)oc12)N(C)c1cc(F)cc(F)c1
0.16
C[C@H]1CN(c2cc(=O)c3cc(C(=O)N(C)C)cc([C@@H](C)Nc4cc(F)cc(F)c4)c3o2)CCO1
0.2
C[C@@H](Nc1cc(F)cc(F)c1F)c1cc(C(=O)N(C)C)cc2c(=O)cc(N3CCOCC3)oc12
0.43
C[C@H](c1cc(C(=O)N2CCC(O)CC2)cc2c(=O)cc(N3CCOCC3)oc12)N(C)c1cc(F)cc(F)c1
0.23
C[C@@H](Nc1cccc(Cl)c1F)c1cc(C(=O)N(C)C)cc2c(=O)cc(N3CCOCC3)oc12
0.26

// next item, fraction unbound requested
Give reported fraction unbound value for C[C@@H](Nc1cc(F)cc(F)c1)c1cc(C(=O)N(C)C)cc2c(=O)cc(N3CCOCC3)oc12
0.31

----------
# System under test: Phosphatidylinositol 4,5-bisphosphate 3-kinase catalytic subunit alpha isoform (Homo sapiens, UniProt P42336)
# Sequence (P42336 whole entry, looked up, canonical isoform): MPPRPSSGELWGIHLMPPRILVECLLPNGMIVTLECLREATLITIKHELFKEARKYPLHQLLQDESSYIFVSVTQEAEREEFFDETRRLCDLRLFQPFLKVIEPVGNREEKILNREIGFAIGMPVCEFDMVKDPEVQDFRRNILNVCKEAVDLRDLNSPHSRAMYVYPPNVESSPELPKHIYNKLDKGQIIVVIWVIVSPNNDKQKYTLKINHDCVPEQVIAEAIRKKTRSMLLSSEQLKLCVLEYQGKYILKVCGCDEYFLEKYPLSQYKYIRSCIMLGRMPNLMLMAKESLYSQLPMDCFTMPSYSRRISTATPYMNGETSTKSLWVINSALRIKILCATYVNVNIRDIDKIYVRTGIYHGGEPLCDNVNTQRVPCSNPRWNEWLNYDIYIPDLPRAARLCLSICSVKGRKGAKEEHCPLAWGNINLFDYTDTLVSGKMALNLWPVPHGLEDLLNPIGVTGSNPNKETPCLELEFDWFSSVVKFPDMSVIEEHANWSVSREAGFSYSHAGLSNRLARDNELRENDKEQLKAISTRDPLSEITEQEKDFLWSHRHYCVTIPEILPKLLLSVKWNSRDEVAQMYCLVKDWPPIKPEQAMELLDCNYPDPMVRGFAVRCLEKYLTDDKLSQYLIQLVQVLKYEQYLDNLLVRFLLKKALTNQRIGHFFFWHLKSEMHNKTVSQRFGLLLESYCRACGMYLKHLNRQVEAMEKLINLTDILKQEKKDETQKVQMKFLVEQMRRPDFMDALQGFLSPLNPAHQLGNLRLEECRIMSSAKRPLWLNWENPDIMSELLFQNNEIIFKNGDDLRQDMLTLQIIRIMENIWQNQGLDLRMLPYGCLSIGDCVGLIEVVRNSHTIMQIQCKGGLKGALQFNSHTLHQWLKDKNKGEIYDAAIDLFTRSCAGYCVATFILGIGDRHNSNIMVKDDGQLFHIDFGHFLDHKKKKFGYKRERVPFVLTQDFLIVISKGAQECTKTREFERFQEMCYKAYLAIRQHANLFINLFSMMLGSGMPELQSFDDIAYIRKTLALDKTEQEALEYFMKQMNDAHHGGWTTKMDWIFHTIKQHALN
# Assay method text: Inhibition of PI3Kalpha mutant human BT474 cells assessed as inhibition of Akt phosphorylation at […] after 2 hrs
# Format: cell-based
# Assay setup: bt-474
I'd appreciate it if you could supply IC50 values for the items below.
One number for each entry, in nM.

Example entries and their recorded answers appear below.
CC(Nc1cccc(F)c1)c1cc(C(=O)N(C)C)cc2c(=O)cc(N3CCOCC3)oc12 (racemic)
2400
CCNC(=O)c1cc(C(C)Nc2cc(F)cc(F)c2)c2oc(N3CCOCC3)cc(=O)c2c1 (racemic)
2900
CC(Nc1cc(F)cc(F)c1)c1cc(C(=O)N(C)CCO)cc2c(=O)cc(N3CCOCC3)oc12 (racemic)
6900
CC(Nc1cccc(Cl)c1)c1cc(C(=O)N(C)C)cc2c(=O)cc(N3CCOCC3)oc12 (racemic)
790
CCN(C)C(=O)c1cc(C(C)Nc2cc(F)cc(F)c2)c2oc(N3CCOCC3)cc(=O)c2c1 (racemic)
2100

Required: IC50, one value per compound below.
1. C[C@@H](Nc1cc(F)cc(Cl)c1)c1cc(C(=O)N(C)C)cc2c(=O)cc(N3CCOCC3)oc12
2. Cc1cc(F)cc(NC(C)c2cc(C(=O)N(C)C)cc3c(=O)cc(N4CCOCC4)oc23)c1 (racemic)
3. C[C@H](Nc1cc(F)cc(F)c1)c1cc(C(=O)N(C)C)cc2c(=O)cc(N3CCO[C@@H](C)C3)oc12

1. 170
2. 2900
3. 2600

----------
# Assay method text: Apparent permeability from apical to basolateral side of human Caco2 cells
# Type: ADME, cell-based
# Assay setup: Caco-2, read-out: permeability
Value type: Papp A→B (×10⁻⁶ cm/s)
Answers are plain numbers, in ×10⁻⁶ cm/s.

CC(Nc1cc(F)cc(F)c1)c1cc(C(=O)N2CCCC2)cc2c(=O)cc(N3CCOCC3)oc12 (racemic)
8.5
C[C@H](c1cc(C(=O)N2CCC(O)CC2)cc2c(=O)cc(N3CCOCC3)oc12)N(C)c1cc(F)cc(F)c1
4.6
CC(Nc1cc(F)cc(F)c1)c1cc(C(=O)N2CCC(O)CC2)cc2c(=O)cc(N3CCOCC3)oc12 (racemic)
1

// next item, Papp A→B requested
Give reported Papp A→B value for C[C@@H](Nc1cc(F)cc(F)c1F)c1cc(C(=O)N(C)C)cc2c(=O)cc(N3CCOCC3)oc12
16

----------
# Assay method text: Lipophilicity, log D of the compound at pH 7.4 by shake-flask method
# Type: physicochemical
# Assay setup: buffer
logD strictly under 3 means class 1; at 3 or over means class 0.

Record excerpt, results attached:
CC(Nc1cc(Cl)cc(Cl)c1)c1cc(C(=O)N(C)C)cc2c(=O)cc(N3CCOCC3)oc12 (racemic)
class 0
C[C@@H](Oc1cc(F)cc(F)c1)c1cc(C(=O)N(C)C)cc2c(=O)cc(N3CCOCC3)oc12
class 1
CCN(CC)C(=O)c1cc(C(C)Nc2cc(F)cc(F)c2)c2oc(N3CCOCC3)cc(=O)c2c1 (racemic)
class 0
CN(C)C(=O)c1cc(CN(C)c2cc(F)cc(F)c2)c2oc(N3CCOCC3)cc(=O)c2c1
class 1

Dear colleague, could you confirm whether logD of CCN(C)C(=O)c1cc(C(C)Nc2cc(F)cc(F)c2)c2oc(N3CCOCC3)cc(=O)c2c1 (racemic) falls below 3? Thanks.
class 1

Dear colleague, could you confirm whether logD of C[C@@H](Nc1cc(F)cc(F)c1F)c1cc(C(=O)N(C)C)cc2c(=O)cc(N3CCOCC3)oc12 falls below 3? Thanks.
class 1

Dear colleague, could you confirm whether logD of CCNC(=O)c1cc(C(C)Nc2cc(F)cc(F)c2)c2oc(N3CCOCC3)cc(=O)c2c1 (racemic) falls below 3? Thanks.
class 0
